test system: SW684 (Other Solid Carcinomas); assay: combination Emax (second highest fraction inhibited in the dose matrix, 72 h); higher = more inhibition; extreme values may be limits of the assay
Catalogue of combination Emax readings, one per entry.

compound="C[C@@H](Oc1cc(-c2cnn(C3CCNCC3)c2)cnc1N)c1c(Cl)ccc(F)c1Cl [Crizotinib] + CC1=C(C(=CC=C1)Cl)NC(=O)C2=CN=C(S2)NC3=CC(=NC(=N3)C)N4CCN(CC4)CCO [Dasatinib] (first compound max 10 µM, 7x7, partner max 2 µM)" system="SW684 (Other Solid Carcinomas)" test_value=0.758

Turning now to a further compound:
Problem: Consider the compound CCc1c2c(nc3ccc(O)cc13)-c1cc3c(c(=O)n1C2)COC(=O)[C@]3(O)CC [SN-38] + O=C(c1cc(Cc2n[nH]c(=O)c3ccccc23)ccc1F)N1CCN(C(=O)C2CC2)CC1 [Olaparib] (first compound max 0.3 µM, 7x7, partner max 10 µM) and give its measured combination Emax.
Solution: 0.556
